Values compiled from patent US11753445B2.

experiment_notes: Stability in mouse plasma, peptides 10 uM (Example 15)
Type: in vitro ADME
assay_setup: pooled mouse plasma; mouse plasma 37° C.; peptide 10 uM; 180 min; read-out: % Remaining at Each Time Point: 180 min
Below, each entry is listed alongside its reported remaining at 3 h, 10 uM.
Respond with the bare value in %.

INPUT: Please look at this substance and report its remaining at 3 h, 10 uM: H-RWQEMGYIFYPRKL-OH [compound 268]
OUTPUT: 0

INPUT: Please look at this substance and report its remaining at 3 h, 10 uM: H-MRWQEMNYIFYPR-OH [compound 208]
OUTPUT: 1.09

INPUT: Please look at this substance and report its remaining at 3 h, 10 uM: H-RWQEEQYIFEPR-OH [compound 264]
OUTPUT: 56.1

INPUT: Please look at this substance and report its remaining at 3 h, 10 uM: H-RWQEMQYIAYPR-OH [compound 255]
OUTPUT: 19.6

INPUT: Please look at this substance and report its remaining at 3 h, 10 uM: H-RWQEENYIAEPR-OH [compound 261]
OUTPUT: 73.7

INPUT: Please look at this substance and report its remaining at 3 h, 10 uM: H-RWQEENYIAYPR-OH [compound 260]
OUTPUT: 35.9

INPUT: Please look at this substance and report its remaining at 3 h, 10 uM: H-WQEMGYIFYPRKL-OH [compound 269]
OUTPUT: 0.43

INPUT: Please look at this substance and report its remaining at 3 h, 10 uM: H-MRWQEMNYIFYP-OH [compound 282]
OUTPUT: 0.29

INPUT: Please look at this substance and report its remaining at 3 h, 10 uM: H-RWQEEQYIFYPR-OH [compound 263]
OUTPUT: 30.8

INPUT: Please look at this substance and report its remaining at 3 h, 10 uM: H-RWQEENYIFYPR-OH [compound 258]
OUTPUT: 21.7

Next:
INPUT: Please look at this substance and report its remaining at 3 h, 10 uM: H-WQEMNYIFYP-OH [compound 285]
OUTPUT: 0.87

INPUT: Please look at this substance and report its remaining at 3 h, 10 uM: H-QEMGYIFYPRKL-OH [compound 270]
OUTPUT: 0.21

INPUT: Please look at this substance and report its remaining at 3 h, 10 uM: H-RWQEEQYIAYPR-OH [compound 265]
OUTPUT: 51.7

INPUT: Please look at this substance and report its remaining at 3 h, 10 uM: H-RWQEMNYIFYPR-OH [compound 210]
OUTPUT: 23

INPUT: Please look at this substance and report its remaining at 3 h, 10 uM: H-MRWQEMGYIFYARKLR-OH [compound 17]
OUTPUT: 7.35

----------
experiment_notes: Stability in mouse plasma, peptides 100 uM (Example 14)
Format: in vitro ADME
assay_setup: pooled mouse plasma; mouse plasma 37° C.; peptide 100 uM; 120 min; read-out: % Remaining at Each Time Point: 120 min
Please respond with T when measured remaining at 2 h, 100 uM is strictly beneath 20%, and with F in all other cases.

INPUT: Say whether its remaining at 2 h, 100 uM is strictly beneath 20%. Entry: H-MRWQEMGYIFYPR-OH [compound 47]
OUTPUT: F

INPUT: Say whether its remaining at 2 h, 100 uM is strictly beneath 20%. Entry: H-MRWQEMGYIFYPRK-OH [compound 46]
OUTPUT: T

INPUT: Say whether its remaining at 2 h, 100 uM is strictly beneath 20%. Entry: H-RWQEMGYIFYPRQLR-OH [compound 217]
OUTPUT: F

INPUT: Say whether its remaining at 2 h, 100 uM is strictly beneath 20%. Entry: H-MRWQEAGYIFYPRKLR-OH [compound 11]
OUTPUT: T

INPUT: Say whether its remaining at 2 h, 100 uM is strictly beneath 20%. Entry: Ac-MRWQEMGYIFYPR-NH2 [compound 61]
OUTPUT: F
